Can you tell me melting point for the items I'm about to list?

## Task Look up melting point: Cc1cc(C)c(N2CCCc3c2nn(C)c3C(=O)N2CCc3ccccc3C2)c(C)c1 [Example 10b]
## Result 80.3 to 87.7 °C

## Task Cool, now CCCC(O)(CCC)c1c2c(nn1C)N(c1c(C)cc(C)cc1C)CCC2
## Result 126 to 127.9 °C

## Task Cool, now CCC(=O)Nc1c2c(nn1C)N(c1c(C)cc(C)cc1C)CCC2 [Example 10c]
## Result 226 to 228 °C

## Task Cool, now COCC(O)(COC)c1c2c(nn1C)N(c1c(C)cc(C)cc1C)CCC2
## Result 120.3 to 121.8 °C

## Task Cool, now CCC(COC)Nc1c2c(nn1C)N(c1c(C)cc(C)cc1C)CCC2 (centres unmarked)
## Result 96.5 to 102.5 °C

###

Experimental readout: melting point

## Task Look up melting point: CC/C=C(\CCC)c1c2c(nn1C)N(c1c(C)cc(C)cc1C)CCC2 [Example 6b]
## Result 101.6 to 102.6 °C

## Task Cool, now CCCC(O)(CCC)c1c2c(nn1C)N(c1ccc(Cl)cc1Cl)CCC2 [Example 5e]
## Result 121.4 to 122.6 °C

## Task Cool, now COCC(=O)Nc1c2c(nn1C)N(c1c(C)cc(C)cc1C)CCC2 [Example 10d]
## Result 133.8 to 135 °C

## Task Cool, now Cc1cc(C)c(N2CCCc3c2nn(C)c3C(=O)O)c(C)c1 [Example 8b]
## Result 228.6 to 233.9 °C

## Task Cool, now CC/C=C(\CCC)c1c2c(nn1C)N(c1c(C)cc(C)cc1C)CCCC2 [Example 6d]
## Result 101.9 to 103.9 °C

## Task Cool, now Cc1cc(C)c(N2CCCc3cn(C)nc32)c(Cl)c1 [Example 5m]
## Result 97 to 98 °C

## Task Cool, now CCCC(O)(c1nccs1)c1c2c(nn1C)N(c1c(C)cc(C)cc1C)CCC2 (stereo not drawn) [Example 5h]
## Result 160.1 to 165.6 °C

## Task Cool, now CCCC(O)(c1cccs1)c1c2c(nn1C)N(c1c(C)cc(C)cc1C)CCC2 (stereo not drawn) [Example 5c]
## Result 175.9 to 178.4 °C

## Task Cool, now Cc1cc(C)c(N2CCCc3c2nn(C)c3NC(=O)OC(C)(C)C)c(Cl)c1 [Example 8c]
## Result 171.4 to 175.7 °C

###

Can you tell me melting point for the items I'm about to list?
Counter-ions that a name gives are not always drawn.

## Task Look up melting point: CCOC(=O)Nc1c2c(nn1C)N(c1c(C)cc(C)cc1Cl)CCC2
## Result 204 to 207.8 °C

## Task Cool, now CCCC(O)(CCC)c1c2c(nn1C)N(c1c(C)cc(C)cc1Cl)CCC2
## Result 129 to 130 °C

## Task Cool, now CCC(O)c1c2c(nn1C)N(c1c(C)cc(C)cc1C)CCC2 (stereo not shown)
## Result 179.4 to 180.9 °C

## Task Cool, now Cc1cc(C)c(N2CCCc3c2nn(C)c3CN2CCc3ccccc3C2)c(C)c1 (as salt: hydrochloride) [Example 11, dihydrochloride]
## Result 236.4 to 241 °C
